molecular target: T1, Anti-CD28 scFv (VH - linker 1 - VL) (biotinylated (site not stated)); assay: phage ELISA; biotinylated anti-CD28 scFv on neutravidin plate, wells pre-incubated with soluble CD28 as competitor, anti-M13-HRP detection
T1 construct: Biotinylated and captured on neutravidin-coated plates in the phage panning ELISA
T1 sequence (scFv, as listed by the source): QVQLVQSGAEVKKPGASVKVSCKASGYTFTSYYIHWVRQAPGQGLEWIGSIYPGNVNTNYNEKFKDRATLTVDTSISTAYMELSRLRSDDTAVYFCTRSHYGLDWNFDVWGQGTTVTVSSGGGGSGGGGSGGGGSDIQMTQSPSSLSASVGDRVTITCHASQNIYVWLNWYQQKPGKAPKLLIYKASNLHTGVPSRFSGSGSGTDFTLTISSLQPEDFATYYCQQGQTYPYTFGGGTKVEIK
test readout: CD28 scFv signal in presence of CD28

1) INLCPTPMWNRCWL (tested as crude clonal phage supernatant) [Phage-423 clonal phage peptide INLCPTPMWNRCWL]
0.101
2) MDWCPVDRWADCFN (tested as crude clonal phage supernatant) [Phage-437 clonal phage peptide MDWCPVDRWADCFN]
0.315
3) MAWCPADQWHECFN (tested as crude clonal phage supernatant) [Phage-431 clonal phage peptide MAWCPADQWHECFN]
0.456
4) MNWCPSTMWNRCLT (tested as crude clonal phage supernatant) [Phage-428 clonal phage peptide MNWCPSTMWNRCLT]
0.07
5) MYWCPINMWDYCYA (tested as crude clonal phage supernatant) [Phage-422 clonal phage peptide MYWCPINMWDYCYA]
0.088
6) MFLCPSAMWNRCFY (tested as crude clonal phage supernatant) [Phage-426 clonal phage peptide MFLCPSAMWNRCFY]
0.114
7) ITQCPSTMWNRCSV (tested as crude clonal phage supernatant) [Phage-424 clonal phage peptide ITQCPSTMWNRCSV]
0.108
8) MDWCPRDRWVDCYA (tested as crude clonal phage supernatant) [Phage-435 clonal phage peptide MDWCPRDRWVDCYA]
0.403
9) MDWCPRDRWVDCFN (tested as crude clonal phage supernatant) [Phage-440 clonal phage peptide MDWCPRDRWVDCFN]
0.132
10) VILCPTTMWNRCFH (tested as crude clonal phage supernatant) [Phage-427 clonal phage peptide VILCPTTMWNRCFH]
0.084
11) MDLCPTAMWNRCFY (tested as crude clonal phage supernatant) [Phage-425 clonal phage peptide MDLCPTAMWNRCFY]
0.084
12) MDWCPRDRWADCFN (tested as crude clonal phage supernatant) [Phage-436 clonal phage peptide MDWCPRDRWADCFN]
0.08
13) MDWCPRDRWDVCFA (tested as crude clonal phage supernatant) [Phage-439 clonal phage peptide MDWCPRDRWDVCFA]
0.096
14) MDWCPMSRWAFCFD (tested as crude clonal phage supernatant) [Phage-438 clonal phage peptide MDWCPMSRWAFCFD]
0.115
15) MAWCPWAQFDECLA (tested as crude clonal phage supernatant) [Phage-433 clonal phage peptide MAWCPWAQFDECLA]
0.078
16) IDWCPIIQGLPCFA (tested as crude clonal phage supernatant) [Phage-432 clonal phage peptide IDWCPIIQGLPCFA]
0.065
